# TARGET_ENTITY: UniProt P32246
# Sequence (P32246 1-355): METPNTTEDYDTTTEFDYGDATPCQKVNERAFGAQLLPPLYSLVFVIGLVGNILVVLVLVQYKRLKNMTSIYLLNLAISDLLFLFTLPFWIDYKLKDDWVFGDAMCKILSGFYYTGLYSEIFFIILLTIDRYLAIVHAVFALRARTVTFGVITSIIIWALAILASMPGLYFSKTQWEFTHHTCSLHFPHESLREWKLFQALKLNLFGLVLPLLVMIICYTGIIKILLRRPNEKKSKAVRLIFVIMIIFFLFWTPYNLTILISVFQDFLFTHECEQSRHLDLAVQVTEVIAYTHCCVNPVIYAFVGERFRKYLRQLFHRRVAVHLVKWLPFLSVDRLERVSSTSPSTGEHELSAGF
# EXPERIMENT_NOTES: Chemotaxis assay (inhibition of CCR1 mediated migration)
# ASSAY_SETUP: chemotaxis of THP-1 or monocyte cells toward CCR1 chemokine ligand (MIP-1α, CCL15/leukotactin); read-out: Avg Mig IC50
# key: entry, value: IC50

For orientation, consider the following solved cases.
Quick one: IC50 for Cc1nc(C(F)(F)F)cn1C1CCCN(c2cnn(-c3ccc(F)cc3)c2C)C1=O (stereo not drawn) [Compound 1.031] ?
0.1 to 20 µM

Request the reported IC50 associated with CCc1nc(C(F)(F)F)cn1C1CCN(c2cnn(-c3ccc(Cl)cc3)c2C(C)C)C1=O (stereo not drawn)
≤ 0.1 µM

# input molecule: Cc1c(N2CCC(n3nc(C(F)(F)F)nc3C)C2=O)cnn1-c1ccc(F)cc1 (stereo not drawn) ; wanted: its IC50
0.1 to 20 µM

Recorded IC50 for Cc1c(N2CCCC(n3nc(C(F)(F)F)c(Cl)c3C)C2=O)cnn1-c1ccc(F)cc1 (stereo not drawn) , please?
0.1 to 20 µM

Entry under review: CC(C)c1c(N2CCC(n3ccc(C(F)(F)F)n3)C2=O)cnn1-c1ccc(F)cc1 (stereo not drawn) . Reported IC50?
0.1 to 20 µM

Continuing:
Endpoint output: IC50 of Cc1nc(C(F)(F)F)cn1C1CCN(c2cnn(-c3ccc(F)cc3)c2)C1=O (stereo not drawn) . Value?
0.1 to 20 µM

Query: IC50; subject: Cc1c(Cl)c(C(F)(F)F)nn1C1CCN(c2cnn(-c3ccc(F)cc3)c2C(C)C)C1=O (stereo not drawn)
≤ 0.1 µM

For the molecule Cc1c(Cl)c(C(F)(F)F)nn1C1CCN(c2cnn(-c3ccc(F)cc3)c2-c2ccccc2)C1=O (stereo not drawn) , what IC50 is on record?
0.1 to 20 µM

###

# TARGET_ENTITY: CCR1 (Homo sapiens, UniProt P32246)
# Sequence (P32246 1-355): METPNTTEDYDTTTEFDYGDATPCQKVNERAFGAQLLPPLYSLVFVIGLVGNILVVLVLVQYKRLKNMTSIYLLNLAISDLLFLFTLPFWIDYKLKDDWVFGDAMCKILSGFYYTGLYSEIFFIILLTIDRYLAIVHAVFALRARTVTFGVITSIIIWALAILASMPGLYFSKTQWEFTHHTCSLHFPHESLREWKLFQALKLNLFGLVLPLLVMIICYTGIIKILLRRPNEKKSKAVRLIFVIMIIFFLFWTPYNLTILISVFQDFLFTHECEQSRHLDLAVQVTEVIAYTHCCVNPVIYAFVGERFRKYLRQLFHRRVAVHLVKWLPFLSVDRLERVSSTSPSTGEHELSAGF
# EXPERIMENT_NOTES: Chemotaxis assay (inhibition of CCR1 mediated migration)
# ASSAY_SETUP: chemotaxis of THP-1 or monocyte cells toward CCR1 chemokine ligand (MIP-1α, CCL15/leukotactin); read-out: Avg Mig IC50
pIC50: −log10 of the molar value.
REPORTED_PROPERTY: pIC50

Requested read-out: pIC50. Entry: Cc1c(Cl)c(C(F)(F)F)nn1C1CC(C)N(c2cnn(-c3ccc(F)cc3)c2C(C)C)C1=O (stereo not shown)
≥ 7.00

Further cases:
GET /values?readout=pIC50&item= Cc1c(Cl)c(C(F)(F)F)nn1C1CCN(c2cnn(-c3ccc(Cl)cc3)c2C(C)C)C1=O (stereo not shown)
≥ 7.00

Name the reported pIC50 value associated with the compound Cc1c(Cl)c(C(F)(F)F)nn1C1CCCN(c2cnn(-c3ccc(F)cc3)c2)C1=O (stereo not shown)
4.70 to 7.00

I would be grateful if you could share the reported pIC50 for Cc1nc(C(F)(F)F)cn1C1CCN(c2cnn(-c3ccc(F)cc3)c2C)C1=O (stereo not shown) .
4.70 to 7.00

Using the record for CCCc1c(N2CCC(n3nc(C(F)(F)F)c(Cl)c3C)C2=O)cnn1-c1ccc(F)cc1 (stereo not shown) , report its pIC50.
4.70 to 7.00

Value lookup for pIC50; key = Cc1cc(C(F)(F)F)nn1C1CCN(c2cnn(-c3ccc(F)cc3)c2)C1=O (stereo not shown)
4.70 to 7.00

Look up pIC50 for this compound: CCCc1c(N2CCC(n3nc(C(F)(F)F)c(Cl)c3C)C2=O)cnn1-c1cccc(F)c1 (stereo not shown)
4.70 to 7.00

###

# TARGET_ENTITY: CCR1 (Homo sapiens, UniProt P32246)
# Construct: host or cells: THP-1 cells (or freshly isolated monocytes)
# Sequence (P32246 1-355): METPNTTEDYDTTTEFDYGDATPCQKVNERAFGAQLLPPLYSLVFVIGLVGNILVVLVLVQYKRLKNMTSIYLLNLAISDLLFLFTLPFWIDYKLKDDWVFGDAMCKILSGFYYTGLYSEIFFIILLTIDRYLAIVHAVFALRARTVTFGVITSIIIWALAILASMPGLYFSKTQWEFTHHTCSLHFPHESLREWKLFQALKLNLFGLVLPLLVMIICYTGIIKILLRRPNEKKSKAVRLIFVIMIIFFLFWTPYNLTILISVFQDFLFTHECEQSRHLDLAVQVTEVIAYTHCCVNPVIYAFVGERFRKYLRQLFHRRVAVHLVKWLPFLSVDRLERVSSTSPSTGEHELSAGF
# EXPERIMENT_NOTES: Chemotaxis assay (inhibition of CCR1 mediated migration)
# Assay type: cell-based
# ASSAY_SETUP: chemotaxis of THP-1 or monocyte cells toward CCR1 chemokine ligand (MIP-1α, CCL15/leukotactin); read-out: Avg Mig IC50
REPORTED_PROPERTY: IC50

# input molecule: Cc1nc(C(F)(F)F)cn1C1CCCN(c2cnn(-c3ccc(F)cc3)c2C)C1=O (stereo not drawn) [Compound 1.036] ; wanted: its IC50
100 to 20000 nM

Bench note: what IC50 did CCc1c(N2CCC(n3nc(C(F)(F)F)c(Cl)c3C)C2=O)cnn1-c1ccc(F)cc1 (stereo not drawn) show?
≤ 100 nM

Given the molecule Cc1c(N2CCCCC(n3nc(C(F)(F)F)c(Cl)c3C)C2=O)cnn1-c1ccc(F)cc1 (stereo not drawn) , what is its reported IC50?
100 to 20000 nM

Name the reported IC50 value associated with the molecule Cc1c(Cl)c(C(F)(F)F)nn1C1CCN(c2cnn(-c3ccc(F)cc3)c2)C1=O (stereo not drawn)
100 to 20000 nM

Tell me the measured IC50 of CCC(C)c1c(N2CCC(n3nc(C(F)(F)F)c(Cl)c3C)C2=O)cnn1-c1ccc(F)cc1 (stereo not drawn) , please.
≤ 100 nM

###

# TARGET_ENTITY: CCR1 (Homo sapiens)
# EXPERIMENT_NOTES: Chemotaxis assay (inhibition of CCR1 mediated migration)
# ASSAY_SETUP: chemotaxis of THP-1 or monocyte cells toward CCR1 chemokine ligand (MIP-1α, CCL15/leukotactin); read-out: Avg Mig IC50
REPORTED_PROPERTY: IC50

Completed entries (count: 5):
Endpoint output: IC50 of Cc1c(Cl)c(C(F)(F)F)nn1C1CCN(c2cnn(-c3ccc(F)cc3)c2C2CC2)C1=O (stereo not shown) . Value?
≤ 100 nM

// query IC50 value for entry Cc1c(Cl)c(C(F)(F)F)nn1C1CCN(c2cnn(-c3ccc(F)cc3)c2C(C)(C)C)C1=O (stereo not shown)
100 to 20000 nM

Which IC50 value is on record for Cc1cc(C(F)(F)F)nn1C1CCN(c2cnn(-c3ccc(F)cc3)c2C(C)C)C1=O (stereo not shown) ?
≤ 100 nM

Return reported IC50; argument: Cc1c(Cl)c(C(F)(F)F)nn1C1CCN(c2cnn(-c3cccc(F)c3)c2-c2ccoc2)C1=O (stereo not shown)
100 to 20000 nM

Need IC50, item Cc1c(Cl)c(-c2ncc[nH]2)nn1C1CCN(c2cnn(-c3ccc(F)cc3)c2C(C)C)C1=O (stereo not shown)
100 to 20000 nM

New cases:
IC50 lookup needed for Cc1nc(C(F)(F)F)cn1[C@H]1CCN(c2nnn(-c3ccc(Cl)cc3)c2C(C)C)C1=O , thanks.
≤ 100 nM

Request the reported IC50 associated with Cc1nc(C(F)(F)F)cn1C1(C)CCN(c2cnn(-c3ccc(Cl)cc3)c2C(C)C)C1=O (stereo not shown)
100 to 20000 nM

Could you tell me which IC50 is on file for Cc1nc(C(F)(F)F)cn1C1CC(C)N(c2cnn(-c3ccc(F)cc3)c2C(C)C)C1=O (stereo not shown) ?
100 to 20000 nM

Param item = Cc1nc(C(F)(F)F)cn1C1CCN(c2cnn(-c3ccc(F)cc3)c2N(C)C)C1=O (stereo not shown) ; retrieve measured IC50.
100 to 20000 nM

Please look up its IC50: Cc1nn(C2CCN(c3cnn(-c4ccc(F)cc4)c3C(C)C)C2=O)c(C(C)(C)O)c1Cl (stereo not shown)
100 to 20000 nM
